compounds and their reported IC50
Test system: E. coli strain with chromosomal A26T DHFR
Assay: microbe, parasite or virus in culture
Type: cell-based
Conditions: Escherichia coli, read-out: Bacterial growth inhibition IC50
measured_metric: IC50

{"chemical_smiles": "COc1ccc([C@@H]2CC(c3c(O)[nH]c(=O)n(C)c3=O)=NN2)cc1OC", "target_desc": "E. coli strain with chromosomal A26T DHFR", "measured_metric": "IC50", "test_value": "197 µM"}
{"chemical_smiles": "C[C@H](Oc1ccc(C=C2C(=O)NC(=O)NC2=O)cc1)C(=O)O", "target_desc": "E. coli strain with chromosomal A26T DHFR", "measured_metric": "IC50", "test_value": "2150 µM"}
{"chemical_smiles": "COc1cc([C@@H]2CC(c3c(O)[nH]c(=O)n(C)c3=O)=NN2)cc(OC)c1OC", "target_desc": "E. coli strain with chromosomal A26T DHFR", "measured_metric": "IC50", "test_value": "172 µM"}
{"chemical_smiles": "CCOc1cc(C=C2C(=O)NC(=O)NC2=O)ccc1OCC(=O)O", "target_desc": "E. coli strain with chromosomal A26T DHFR", "measured_metric": "IC50", "test_value": "1920 µM"}
{"chemical_smiles": "Cn1c(=O)[nH]c(O)c(C2=NN[C@H](c3ccc4c(c3)OCO4)C2)c1=O", "target_desc": "E. coli strain with chromosomal A26T DHFR", "measured_metric": "IC50", "test_value": "123 µM"}
{"chemical_smiles": "COc1ccc([C@@H]2CC(c3c(O)[nH]c(=O)n(C)c3=O)=NN2)cc1O", "target_desc": "E. coli strain with chromosomal A26T DHFR", "measured_metric": "IC50", "test_value": "119 µM"}
{"chemical_smiles": "Cn1c(=O)[nH]c(O)c(C2=NN[C@H](c3cccc4ccccc34)C2)c1=O", "target_desc": "E. coli strain with chromosomal A26T DHFR", "measured_metric": "IC50", "test_value": "73 µM"}

* * *

Human DHFR (Homo sapiens) measurements of pKi, listed per entry.
Sequence (P00374 whole entry): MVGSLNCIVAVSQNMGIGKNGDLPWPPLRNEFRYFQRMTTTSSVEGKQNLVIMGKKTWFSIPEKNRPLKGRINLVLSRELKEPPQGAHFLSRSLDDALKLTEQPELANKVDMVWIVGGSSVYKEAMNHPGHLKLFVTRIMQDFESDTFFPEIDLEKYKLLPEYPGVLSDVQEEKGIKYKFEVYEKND
pKi: −log10 of the molar value.
measured_metric: pKi

{"chemical_smiles": "COc1ccc([C@@H]2CC(c3c(O)[nH]c(=O)n(C)c3=O)=NN2)cc1OC", "test_value": 6.42}
{"chemical_smiles": "CCOc1cc(C=C2C(=O)NC(=O)NC2=O)ccc1OCC(=O)O", "test_value": 6.13}

* * *

pKi: −log10 of the molar value.
E. coli WT DHFR (Escherichia coli) measurements of pKi, listed per entry.
Sequence (P0ABQ4 whole entry): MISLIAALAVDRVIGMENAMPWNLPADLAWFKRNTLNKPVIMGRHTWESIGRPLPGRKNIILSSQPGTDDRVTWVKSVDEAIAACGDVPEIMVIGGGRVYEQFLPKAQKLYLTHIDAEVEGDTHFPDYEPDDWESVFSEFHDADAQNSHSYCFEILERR

{"chemical_smiles": "COc1cc([C@H]2CC(=O)Nc3nc(N)[nH]c(=O)c32)ccc1O", "pKi": 5.16}
{"chemical_smiles": "COc1ccc([C@@H]2CC(c3c(O)[nH]c(=O)n(C)c3=O)=NN2)cc1OC", "pKi": 5.47}
{"chemical_smiles": "Cn1c(=O)[nH]c(O)c(C2=NN[C@H](c3cccc4ccccc34)C2)c1=O", "pKi": 5.26}

* * *

molecules and their reported IC50
Tested on: E. coli strain with chromosomal L28R DHFR
Assay: microbe, parasite or virus in culture
Format: cell-based
Details: Escherichia coli, read-out: Bacterial growth inhibition IC50

{"chemical_smiles": "C[C@H](Oc1ccc(C=C2C(=O)NC(=O)NC2=O)cc1)C(=O)O", "IC50": "907 µM"}
{"chemical_smiles": "COc1cc([C@@H]2CC(c3c(O)[nH]c(=O)n(C)c3=O)=NN2)cc(OC)c1OC", "IC50": "167 µM"}
{"chemical_smiles": "COc1ccc([C@@H]2CC(c3c(O)[nH]c(=O)n(C)c3=O)=NN2)cc1OC", "IC50": "159 µM"}
{"chemical_smiles": "O=C(O)COc1c(Cl)cc(C=C2C(=O)NC(=O)NC2=O)cc1Cl", "IC50": "1860 µM"}
{"chemical_smiles": "CCOc1cc(C=C2C(=O)NC(=O)NC2=O)ccc1OCC(=O)O", "IC50": "932 µM"}
{"chemical_smiles": "COc1ccc([C@@H]2CC(c3c(O)[nH]c(=O)n(C)c3=O)=NN2)cc1O", "IC50": "88 µM"}
{"chemical_smiles": "Cn1c(=O)[nH]c(O)c(C2=NN[C@H](c3cccc4ccccc34)C2)c1=O", "IC50": "48 µM"}
{"chemical_smiles": "Cn1c(=O)[nH]c(O)c(C2=NN[C@H](c3ccc4c(c3)OCO4)C2)c1=O", "IC50": "67 µM"}
